The entries below are paired with their reported Activity.
Species on record: Rattus norvegicus
assay_details: Inhibition of rat recombinant geranylgeranyltransferase type I expressed in Escherichia coli assessed as residual enzyme activity for geranylgeranylation of K-Ras4B at 50 uM incubated for 30 mins in presence of [3H]GGPP by scintillation counting assay relative to control
Entry rule: numbers only, all in %.

Illustrative cases are given below, each with its answer.
{"smiles_text": "COc1ccc([C@@H]2CC=C(C(=O)O)[C@H](c3ccc(Br)cc3)N2S(=O)(=O)c2ccccc2)cc1", "Activity, %": 82.3}
{"smiles_text": "CCS[C@@H]1C[C@@H](c2ccccc2)N(S(=O)(=O)c2ccc(C)cc2)C[C@H]1C(=O)O", "Activity, %": 94.8}
{"smiles_text": "CCCCCCS[C@@H]1C[C@@H](c2ccc(Cl)cc2)N(S(=O)(=O)c2ccccc2C)C[C@H]1C(=O)O", "Activity, %": 66.3}
{"smiles_text": "Cc1ccc([C@@H]2CC=C(C(=O)O)[C@H](c3ccc(Br)cc3)N2S(=O)(=O)c2ccc(C)cc2)cc1", "Activity, %": 68.1}

Consider the molecule COc1ccc(S[C@@H]2C[C@@H](c3ccccc3)N(S(=O)(=O)c3ccc(C)cc3)C[C@H]2C(=O)O)cc1 and give its measured Activity.
99.1

Name the recorded Activity for CCCS[C@@H]1C[C@@H](c2ccc3c(c2)OCO3)N(S(=O)(=O)c2ccc(C)cc2)C[C@H]1C(=O)O .
83.6

Which value of Activity has been reported for CS(=O)(=O)N1[C@@H](c2ccc(Cl)cc2)C(C(=O)O)=CC[C@H]1c1ccccc1 in the records?
82.1

// returns reported Activity for input CCCCS[C@@H]1C[C@@H](c2ccc3c(c2)OCO3)N(S(=O)(=O)c2ccc(C)cc2)C[C@H]1C(=O)O
80.4
